Origin of measurements: patent US11964973B2

Target: human DGKζ (Homo sapiens (Human), UniProt Q13574)
Sequence (Q13574 whole entry, looked up): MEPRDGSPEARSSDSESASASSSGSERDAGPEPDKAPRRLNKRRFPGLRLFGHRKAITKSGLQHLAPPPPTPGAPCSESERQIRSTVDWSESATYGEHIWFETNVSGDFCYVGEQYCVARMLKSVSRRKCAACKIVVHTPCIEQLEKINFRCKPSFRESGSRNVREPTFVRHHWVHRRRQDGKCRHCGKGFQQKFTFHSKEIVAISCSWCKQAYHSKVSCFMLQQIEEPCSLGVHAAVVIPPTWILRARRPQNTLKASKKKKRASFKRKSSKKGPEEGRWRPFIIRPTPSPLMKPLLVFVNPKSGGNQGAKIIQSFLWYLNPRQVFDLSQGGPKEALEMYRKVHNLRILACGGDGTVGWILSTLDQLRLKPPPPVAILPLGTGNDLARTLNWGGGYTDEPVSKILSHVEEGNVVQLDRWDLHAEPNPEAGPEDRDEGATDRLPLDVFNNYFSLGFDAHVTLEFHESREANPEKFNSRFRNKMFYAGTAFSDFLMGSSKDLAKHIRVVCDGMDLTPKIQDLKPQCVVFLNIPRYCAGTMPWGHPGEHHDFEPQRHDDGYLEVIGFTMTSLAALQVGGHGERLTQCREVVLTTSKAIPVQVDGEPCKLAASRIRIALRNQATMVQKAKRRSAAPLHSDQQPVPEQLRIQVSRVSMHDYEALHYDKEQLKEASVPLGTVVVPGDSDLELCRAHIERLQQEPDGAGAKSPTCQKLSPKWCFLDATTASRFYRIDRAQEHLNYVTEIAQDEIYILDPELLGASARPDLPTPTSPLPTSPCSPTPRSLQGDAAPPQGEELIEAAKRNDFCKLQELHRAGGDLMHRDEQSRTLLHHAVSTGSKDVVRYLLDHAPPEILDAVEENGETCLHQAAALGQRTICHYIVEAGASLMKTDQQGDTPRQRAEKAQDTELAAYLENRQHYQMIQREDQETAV
Experiment: biochemical
Assay type: biochemical
Settings: liposome (LIPGLO) assay; read-out: DGKζ LIPGLO IC50
Measured IC50, listed per entry.
Measured endpoint: IC50 (µM)

[[record]]
compound = "C[C@@H]1CN(c2cc(=O)n(C)c3ccc(C#N)nc23)CC[C@H]1Oc1cccc2c1OCCCO2"
measured_target = "human DGKζ (Homo sapiens (Human), UniProt Q13574)"
measured_endpoint = "IC50"
recorded_value = 4.3

[[record]]
compound = "CCCCCc1ccc(OC2CCN(c3cc(=O)n(C)c4ccc(C#N)nc34)CC2)cc1"
measured_target = "human DGKζ (Homo sapiens (Human), UniProt Q13574)"
measured_endpoint = "IC50"
recorded_value = 5.2

[[record]]
compound = "CC[C@@H]1CN(c2cc(=O)n(C)c3ccc(C#N)nc23)CC[C@@H]1Oc1cccc(C(F)(F)F)c1"
measured_target = "human DGKζ (Homo sapiens (Human), UniProt Q13574)"
measured_endpoint = "IC50"
recorded_value = 0.89

[[record]]
compound = "Cn1c(=O)cc(N2CCC(Oc3ccnc(C(F)(F)F)n3)CC2)c2nc(C#N)ccc21"
measured_target = "human DGKζ (Homo sapiens (Human), UniProt Q13574)"
measured_endpoint = "IC50"
recorded_value = 34

[[record]]
compound = "CC[C@@H]1CN(c2cc(=O)n(C)c3ccc(C#N)nc23)CC[C@H]1Oc1cccc(C(F)(F)F)c1 (single isomer, unassigned) [Example 142]"
measured_target = "human DGKζ (Homo sapiens (Human), UniProt Q13574)"
measured_endpoint = "IC50"
recorded_value = 1.1

[[record]]
compound = "COc1ccccc1OC1CCN(c2c(C#N)c(=O)n(C)c3ccc(Cl)nc23)CC1"
measured_target = "human DGKζ (Homo sapiens (Human), UniProt Q13574)"
measured_endpoint = "IC50"
recorded_value = 12

[[record]]
compound = "CC[C@@H]1CN(c2cc(=O)n(C)c3ccc(C#N)nc23)CC[C@@H]1Oc1cccc(C(C)(C)C)c1 [Example 166]"
measured_target = "human DGKζ (Homo sapiens (Human), UniProt Q13574)"
measured_endpoint = "IC50"
recorded_value = 1.6

[[record]]
compound = "C[C@@H]1CN(c2cc(=O)n(C)c3ccc(C#N)nc23)CC[C@H]1Oc1ccc(F)cc1C(F)(F)F (single isomer, unassigned) [Example 118]"
measured_target = "human DGKζ (Homo sapiens (Human), UniProt Q13574)"
measured_endpoint = "IC50"
recorded_value = 52

[[record]]
compound = "Cn1c(=O)c(C#N)c(N2CCC(Oc3ccc(OC(F)(F)F)c(Cl)c3)CC2)c2nc(Cl)ccc21"
measured_target = "human DGKζ (Homo sapiens (Human), UniProt Q13574)"
measured_endpoint = "IC50"
recorded_value = 240

[[record]]
compound = "Cn1c(=O)c(C#N)c(N2CCC(Oc3cccc(C(F)(F)F)c3)CC2)c2nc(Cl)ccc21"
measured_target = "human DGKζ (Homo sapiens (Human), UniProt Q13574)"
measured_endpoint = "IC50"
recorded_value = 27

[[record]]
compound = "Cn1c(=O)c(C#N)c(N2CCC(Oc3ccccc3C(F)(F)F)CC2)c2nc(Cl)ccc21"
measured_target = "human DGKζ (Homo sapiens (Human), UniProt Q13574)"
measured_endpoint = "IC50"
recorded_value = 150

[[record]]
compound = "CC(C)c1ccc(O[C@H]2CCN(c3cc(=O)n(C)c4ccc(C#N)nc34)C[C@H]2C)cc1 [Example 182]"
measured_target = "human DGKζ (Homo sapiens (Human), UniProt Q13574)"
measured_endpoint = "IC50"
recorded_value = 1.8

[[record]]
compound = "C[C@@H]1CN(c2cc(=O)n(C)c3ccc(C#N)nc23)CC[C@H]1Oc1ccc(C(F)(F)F)cc1F"
measured_target = "human DGKζ (Homo sapiens (Human), UniProt Q13574)"
measured_endpoint = "IC50"
recorded_value = 7.5

[[record]]
compound = "C[C@@H]1CN(c2cc(=O)n(C)c3ccc(C#N)nc23)CC[C@H]1Oc1cccc(C2CC2)c1 (single isomer, unassigned) [Example 92]"
measured_target = "human DGKζ (Homo sapiens (Human), UniProt Q13574)"
measured_endpoint = "IC50"
recorded_value = 16

[[record]]
compound = "Cn1c(=O)c(C#N)c(N2CCC(Oc3ccc(OC(F)(F)F)cc3)CC2)c2nc(Br)ccc21"
measured_target = "human DGKζ (Homo sapiens (Human), UniProt Q13574)"
measured_endpoint = "IC50"
recorded_value = 240

[[record]]
compound = "Cn1c(=O)cc(N2CCC(Oc3ccc(C4CCCC4)cc3)CC2)c2nc(C#N)ccc21"
measured_target = "human DGKζ (Homo sapiens (Human), UniProt Q13574)"
measured_endpoint = "IC50"
recorded_value = 2.9

[[record]]
compound = "CC(C)c1ccc(O[C@@H]2CCN(c3cc(=O)n(C)c4ccc(C#N)nc34)C[C@H]2C)cc1 (single isomer, unassigned) [Example 95]"
measured_target = "human DGKζ (Homo sapiens (Human), UniProt Q13574)"
measured_endpoint = "IC50"
recorded_value = 5

[[record]]
compound = "CC[C@@H]1CN(c2cc(=O)n(C)c3ccc(C#N)nc23)CC[C@H]1Oc1cccc(OC(F)(F)F)c1 (single isomer, unassigned) [Example 163]"
measured_target = "human DGKζ (Homo sapiens (Human), UniProt Q13574)"
measured_endpoint = "IC50"
recorded_value = 0.36

[[record]]
compound = "Cn1c(=O)c([N+](=O)[O-])c(N2CCC(Oc3ccc(OC(F)(F)F)cc3)CC2)c2nc(C#N)ccc21"
measured_target = "human DGKζ (Homo sapiens (Human), UniProt Q13574)"
measured_endpoint = "IC50"
recorded_value = 3

[[record]]
compound = "Cn1c(=O)cc(N2CCC(Oc3ncnc4ccccc34)CC2)c2nc(C#N)ccc21"
measured_target = "human DGKζ (Homo sapiens (Human), UniProt Q13574)"
measured_endpoint = "IC50"
recorded_value = 3

[[record]]
compound = "C[C@@H]1CN(c2cc(=O)n(C)c3ccc(C#N)nc23)CC[C@H]1Oc1ccc(F)cc1C(F)(F)F (single isomer, unassigned) [Example 117]"
measured_target = "human DGKζ (Homo sapiens (Human), UniProt Q13574)"
measured_endpoint = "IC50"
recorded_value = 20

[[record]]
compound = "Cn1c(=O)cc(N2CCC(Oc3cnc4ccccc4n3)CC2)c2nc(C#N)ccc21"
measured_target = "human DGKζ (Homo sapiens (Human), UniProt Q13574)"
measured_endpoint = "IC50"
recorded_value = 1.4

[[record]]
compound = "COc1cc(OC2CCN(c3cc(=O)n(C)c4ccc(C#N)nc34)CC2)nc2cc(Cl)ccc12"
measured_target = "human DGKζ (Homo sapiens (Human), UniProt Q13574)"
measured_endpoint = "IC50"
recorded_value = 8.3

[[record]]
compound = "Cc1nccc(OC2CCN(c3cc(=O)n(C)c4ccc(C#N)nc34)CC2)n1"
measured_target = "human DGKζ (Homo sapiens (Human), UniProt Q13574)"
measured_endpoint = "IC50"
recorded_value = 39

[[record]]
compound = "COc1cc(F)ccc1OC1CCN(c2c(C#N)c(=O)n(C)c3ccc(Cl)nc23)CC1"
measured_target = "human DGKζ (Homo sapiens (Human), UniProt Q13574)"
measured_endpoint = "IC50"
recorded_value = 32

[[record]]
compound = "CCCc1ccc(OC2CCN(c3cc(=O)n(C)c4ccc(C#N)nc34)CC2)cc1"
measured_target = "human DGKζ (Homo sapiens (Human), UniProt Q13574)"
measured_endpoint = "IC50"
recorded_value = 6.1

[[record]]
compound = "CC[C@@H]1CN(c2cc(=O)n(C)c3ccc(C#N)nc23)CC[C@@H]1Oc1cccc(C(C)(C)C)c1 [Example 165]"
measured_target = "human DGKζ (Homo sapiens (Human), UniProt Q13574)"
measured_endpoint = "IC50"
recorded_value = 1.2

[[record]]
compound = "Cn1c(=O)c(C#N)c(N2CCC(Oc3ccc(OC(C)(C)C)cc3)CC2)c2nc(Cl)ccc21"
measured_target = "human DGKζ (Homo sapiens (Human), UniProt Q13574)"
measured_endpoint = "IC50"
recorded_value = 11

[[record]]
compound = "Cc1cccc(O[C@@H]2CCN(c3cc(=O)n(C)c4ccc(C#N)nc34)C[C@H]2C)c1 (single isomer, unassigned) [Example 108]"
measured_target = "human DGKζ (Homo sapiens (Human), UniProt Q13574)"
measured_endpoint = "IC50"
recorded_value = 11

